- System: S. cerevisiae Mot1-301 ts growth rescue, BacTiter-Glo ATP luminescence
- test-details: restored Mot1-301 yeast growth at 38.5C – whole organism, S. cerevisiae, Mot1-301 ts mutant, luminescence, dose retest, SUMOylation pathway inhibitor project, confirmation (AID 463204);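 note: growth at restrictive 38.5 degrees C of Mot1-301 OY566 strain; actives raise luminescence by restoring growth of the ts mutant at high temperature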
Active and inactive are the calls of the source.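 Rule for the calls: active = AC50 no more than ten times the top concentration tested, that is within one log above it; inconclusive = flat curve fit with activity between 30% and 70%, or invalid poor fit; inactive = AC50 beyond ten times the top tested dose.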
In this exercise, the only acceptable responses are active, inactive

Cc1ccc(CSCCNC(=O)c2ccc(NS(C)(=O)=O)cc2)cc1 ... inactive
Cc1cc(C)n(-c2nc3ccccc3nc2N2CCN(C(=O)c3ccccc3)CC2)n1 ... inactive
O=C(Nc1nnc(COc2ccc(F)cc2)s1)c1cccs1 ... inactive
CCN(CC)c1ccc(N=Cc2c(O)n(Cc3ccccc3)c(=O)[nH]c2=O)cc1 ... inactive
O=C(NNS(=O)(=O)c1c(F)cc(F)c(Cl)c1F)C12CC3CC(CC(C3)C1)C2 ... active
COc1ccc(OC(=O)c2ccc(Cl)cc2)c(C(C)=O)c1 ... inactive
CCCNC(=O)Cn1nc(C)n2c(cc3cc(F)ccc32)c1=O ... inactive
Cc1cccc(Cn2c(C(=O)OC(C)C)cc3c2ccn3C)c1 ... inactive
CCOC(=O)c1ccc(CNC(=O)C2CCCCC2C(=O)OCC(F)(F)F)o1 (stereo not given) ... inactive
Cc1cc(Oc2cc(NN3CCCCC3)c([N+](=O)[O-])cc2[N+](=O)[O-])ccc1[N+](=O)[O-] ... inactive

Let us examine a further case.
Q. Kindly provide the recorded test outcome for the following molecule: S=c1[nH]nc(-c2ccccn2)n1/N=C/c1ccccc1
A. inactive

###

- System: S. cerevisiae Mot1-301 ts growth rescue, BacTiter-Glo ATP luminescence
- test-details: restored Mot1-301 yeast growth at 38.5C – whole organism, S. cerevisiae, Mot1-301 ts mutant, luminescence, dose retest, SUMOylation pathway inhibitor project, confirmation (AID 463204)
The source made the active and inactive calls.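 The calls were made as follows: active = AC50 no more than ten times the top concentration tested, that is within one log above it; inconclusive = flat curve fit with activity between 30% and 70%, or invalid poor fit; inactive = AC50 beyond ten times the top tested dose.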
Your reply should match one of these outcome classes. active, inactive

Record excerpt, results attached:
COc1ccc(OC)c2c(N)c(C#N)c(C(F)(F)C(F)(F)F)nc12 ... inactive
CC(C)c1ccc(NC(=O)COc2nnc(-c3cccs3)c(-c3cccs3)n2)cc1 ... inactive

Q. Which outcome did this test record for the compound c1ccc(-c2csc(NC3CCCCC3)n2)cc1 ?
A. inactive

Q. Please share the test call associated with O=C(NCC1CCN(Cc2ccccc2Cl)CC1)Nc1ccccc1F .
A. inactive

Q. Kindly provide the recorded test outcome for the following compound: Cc1c(C(=O)NC(C)c2ccc(-n3ccnc3)cc2)cccc1[N+](=O)[O-] (stereo not given)
A. inactive

Q. Please state the recorded outcome for this compound: CN(c1ccccc1)c1ccc(/C=C/[N+](=O)[O-])cc1
A. active

Q. Can you look up the reported call for CN1C(=O)NC(=O)[C@]2(Cc3ccccc3N3CCN(c4ccccc4)CC32)C1=O (stereo not given in full) for me?
A. inactive

Q. Please state the recorded outcome for this compound: Cn1c(=O)c2c(ncn2CC(=O)OCC(=O)Nc2ccc(Cl)cc2)n(C)c1=O
A. inactive

Q. Entry CCn1c(C)c(C(C)=O)c(N2CCN(c3ccc(F)cc3)CC2)nc1=S : call = ?
A. inactive

Q. Each compound tested received a call. Report the one for Cc1cc(NC(=O)c2ccc(N3C(=O)CCC3=O)cc2)no1 .
A. inactive

###

- System: S. cerevisiae Mot1-301 ts growth rescue, BacTiter-Glo ATP luminescence
- test-details: restored Mot1-301 yeast growth at 38.5C – whole organism, S. cerevisiae, Mot1-301 ts mutant, luminescence, dose retest, SUMOylation pathway inhibitor project, confirmation (AID 463204)
Calls of active or inactive are those of the source.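 Rule for the calls: active = AC50 no more than ten times the top concentration tested, that is within one log above it; inconclusive = flat curve fit with activity between 30% and 70%, or invalid poor fit; inactive = AC50 beyond ten times the top tested dose.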
Your answer must be one of the following: active, inactive

Example results:
CC(C)(c1ccccc1)c1ccc(OCCN2CCOCC2)cc1 ... inactive
COc1ccc(OC)c(-c2cc(C(=O)Nc3c(C)nn(Cc4ccccc4Cl)c3C)no2)c1 ... inactive
CN(C)CCOC(=O)CCc1ccccc1 ... inactive
O=C1CC(c2ccccc2)C(=O)N1c1cccc(O)c1 (centres undefined) ... inactive
Fc1ccc2nc(C3CCN(Cc4nc(CC5CC5)no4)CC3)[nH]c2c1 ... inactive

Q. What did this assay record as the result for CCn1cc(C(=O)NCc2ccccn2)c(=O)c2cc(F)c(N3CCN(C)CC3)cc21 ?
A. inactive

Q. Given O=C(CCSc1nnnn1-c1ccccc1)N1CCOCC1 , state the outcome it received in this test.
A. inactive

Q. Please let me know the test result on file for COC(=O)CSc1ccc(S(=O)(=O)N2CCCCCC2)cc1[N+](=O)[O-] .
A. inactive

Q. Which outcome did this test record for the compound CCOc1ccc(NC(=O)C2CC(=O)N3CCCN=C3S2)cc1 (centres undefined) ?
A. inactive

Q. Dear colleague, could you share the recorded outcome for CCOc1c(Cl)cc(CNCC(O)c2ccccc2)cc1OC (centres undefined) when you have a moment?
A. inactive

Q. What did the test return for COc1ccc(NC(=O)Nc2ccc(OC)cc2)cc1 ?
A. inactive

###

What AC50 was measured for each of the following?
- Tested on: S. cerevisiae Mot1-301 ts growth rescue, BacTiter-Glo ATP luminescence
- test-details: restored Mot1-301 yeast growth at 38.5C – whole organism, S. cerevisiae, Mot1-301 ts mutant, luminescence, dose retest, SUMOylation pathway inhibitor project, confirmation (AID 463204);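 note: growth at restrictive 38.5 degrees C of Mot1-301 OY566 strain; actives raise luminescence by restoring growth of the ts mutant at high temperature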
The source made the active and inactive calls.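 The calls were made as follows: active = AC50 no more than ten times the top concentration tested, that is within one log above it; inconclusive = flat curve fit with activity between 30% and 70%, or invalid poor fit; inactive = AC50 beyond ten times the top tested dose.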

Study these solved cases before continuing.
O=C(NC1CCCCCC1)C1CCN(S(=O)(=O)c2cccc3cccnc23)CC1 ... > 42 µM (inactive)
CCCCN(C(=O)C1=COCCO1)c1c(N)n(Cc2ccccc2)c(=O)[nH]c1=O ... > 42 µM (inactive)
CCC1(c2ccccc2)NC(=O)N(CC(=O)N(C)CC(=O)Nc2ccc(F)c(F)c2F)C1=O (configuration not stated) ... > 42 µM (inactive)

For each of the molecules below, state AC50.
1. Cc1cc(S(=O)(=O)N2CCCCC2CCNC(=O)C(=O)NCC2CCCO2)ccc1F (configuration not stated)
2. CCOC(=O)c1cnc2c(C)c(Cl)ccc2c1N1CCOCC1
3. CCNC(=O)NC(C(=O)OC)C12CC3CC(CC(C3)C1)C2 (configuration not stated)
4. C=CCNC(=O)c1cc(-c2cccnc2)nc2ccccc12

A.
> 42 µM (inactive)
> 42 µM (inactive)
> 42 µM (inactive)
> 42 µM (inactive)

###

- System: S. cerevisiae Mot1-301 ts growth rescue, BacTiter-Glo ATP luminescence
- test-details: restored Mot1-301 yeast growth at 38.5C – whole organism, S. cerevisiae, Mot1-301 ts mutant, luminescence, dose retest, SUMOylation pathway inhibitor project, confirmation (AID 463204);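 note: growth at restrictive 38.5 degrees C of Mot1-301 OY566 strain; actives raise luminescence by restoring growth of the ts mutant at high temperature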
Activity calls are given as the source filed them.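 Rule for the calls: active = AC50 no more than ten times the top concentration tested, that is within one log above it; inconclusive = flat curve fit with activity between 30% and 70%, or invalid poor fit; inactive = AC50 beyond ten times the top tested dose.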
Your response should consist of one outcome taken from 1 (active), 0 (inactive)

Q. Called result for O=S1(=O)NC(c2ccccc2)CC(CC2CCCCC2)O1 (configuration not stated)
A. 1

Q. What was the test verdict on CC(C)(C)c1cc(NCCCn2ccnc2)n2ncc(-c3ccc(Cl)cc3)c2n1 ?
A. 1

Q. I'd appreciate the recorded outcome for O=C(N/N=C/C(Br)=C/c1ccccc1)c1cccnc1 from this test.
A. 1

Q. Recorded test outcome, item CC(C(=O)N1CCN(C(=O)c2ccco2)CC1)n1sc2ccccc2c1=O (configuration not stated)
A. 0

Q. Which outcome was assigned to CCOC(=O)C1=C(N)c2ccccc2CC1C1CCCC1 (configuration not stated) in this test?
A. 0

Q. Short answer needed: outcome of this test for COc1ccc(S(=O)(=O)NCC(=O)N(CC(=O)NCC2CCCO2)c2ccccc2C)cc1 (configuration not stated) ?
A. 0

Q. Hey, what did the test say about O=C(c1ccc(COc2ccccc2Cl)o1)N1N=C(C(F)F)CC1(O)C(F)F (configuration not stated) ?
A. 0

Q. Short answer needed: outcome of this test for Cc1sc2ncnc(N3CCC(C(=O)NNC(=O)COc4ccccc4F)CC3)c2c1C ?
A. 0

Q. Name the outcome recorded for Cc1onc(-c2ccccc2Cl)c1C(=O)N1CCc2ccccc2C1 in the assay.
A. 1

Q. What classification did CN(C)CCN(Cc1ccc(Cl)cc1)c1ccccn1 end up with in this test?
A. 0

Q. What did the test return for COc1ccc(S(=O)(=O)N2CCc3cc4c(cc3C2C)OCCCO4)cc1 (configuration not stated) ?
A. 0

###

- Tested on: S. cerevisiae Mot1-301 ts growth rescue, BacTiter-Glo ATP luminescence
- test-details: restored Mot1-301 yeast growth at 38.5C – whole organism, S. cerevisiae, Mot1-301 ts mutant, luminescence, dose retest, SUMOylation pathway inhibitor project, confirmation (AID 463204);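 note: growth at restrictive 38.5 degrees C of Mot1-301 OY566 strain; actives raise luminescence by restoring growth of the ts mutant at high temperature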
Activity calls are given as the source filed them.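 The calls were made as follows: active = AC50 no more than ten times the top concentration tested, that is within one log above it; inconclusive = flat curve fit with activity between 30% and 70%, or invalid poor fit; inactive = AC50 beyond ten times the top tested dose.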
Outcome (select one): 1 for active, 0 for inactive

Cc1cc(C)cc(NC(=O)CS(=O)(=O)c2ccccc2)c1 ... 0
C=CCSC1=C(C#N)C(c2ccc(C(C)C)cc2)CC(=O)N1 (stereo unspecified) ... 1
CCCC(O)(c1ccc(Br)cc1)C(CN1CCOCC1)c1ccc(Cl)cc1 (stereo unspecified) ... 1
COc1cccc(CN(C)C(=O)C2CCC(=O)N(Cc3cccc(F)c3)C2)c1 (stereo unspecified) ... 0
COc1ccccc1C(=O)N(NC(=O)Oc1ccccc1)C(C)(C)C ... 0

Below: the item to evaluate.
Q. Hi, do you know how CC(C)(C)C(=O)Nc1ccc(C(=O)NCc2cccnc2)cc1 came out in this test?
A. 0
